Values compiled from the supplement of paper PMC10567573.

B1: PRKX (parent)
chain: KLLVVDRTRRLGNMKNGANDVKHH

variants of: B1; experiment: protein stability index of a GFP-peptide fusion (GPS, HEK-293T) (PSI 1-6); higher = more stable; settings: c terminus: a fixed tail appended;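 further: lentivirally expressed fusions sorted by FACS into six bins by GFP to DsRed ratio, PSI derived from sequencing read proportions per bin multiplied by bin number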
# cutoff 3 applies to protein stability index; >= gives Condition met, < gives Condition not met

Solved cases (3 shown):
Has KLLVVDRTRRLGNMCNGANDVKHH [K15C] a recorded protein stability index greater than or equal to 3? Condition not met

Check the entry KLLVVDRTRRLANMKNGANDVKHH [G12A] : does protein stability index equal or exceed 3? Condition not met

Reported protein stability index at or above 3? KLLVVDRTRRLGNMKNGANHVKHH [D20H] Condition not met

More entries:
Dear colleague, could you confirm whether KLLVVDRTRRLGNMKNGANDVSHH [K22S] has protein stability index at or above 3? Condition met

Check this variant for protein stability index at or above 3: KLLVVDRTRRLGNMKNGVNDVKHH [A18V] Condition not met

Confirm if protein stability index reported for the variant KLLVVDRTRRLGNMDNGANDVKHH [K15D] is 3 or above. Condition met

Is the recorded value of protein stability index equal to or greater than 3 for this variant? KLLVVDRTRRLGPMKNGANDVKHH [N13P] Condition not met
